studySystem: human GPR119 (Homo sapiens, UniProt Q8TDV5)
Sequence (Q8TDV5 1-308 limits assumed): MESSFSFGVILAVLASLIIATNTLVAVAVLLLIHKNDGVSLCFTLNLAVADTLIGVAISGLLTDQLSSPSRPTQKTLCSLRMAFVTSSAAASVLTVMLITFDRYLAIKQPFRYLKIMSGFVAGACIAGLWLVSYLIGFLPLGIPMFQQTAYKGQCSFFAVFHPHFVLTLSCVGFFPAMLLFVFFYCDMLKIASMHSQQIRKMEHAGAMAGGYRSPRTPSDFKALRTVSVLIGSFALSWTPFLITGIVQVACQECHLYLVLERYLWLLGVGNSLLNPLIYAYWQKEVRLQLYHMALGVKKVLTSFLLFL
assayInfo: Measurement of GPR119 signaling (cAMP assay) in cells stably transfected with human GPR119
Type: cell-based
conditionsUsed: stated in the example text; cAMP stimulation, human GPR119; read-out: GPR119 Human EC50
outcomeMeasure: EC50 (nM)
Number in nM, nothing else.

Some entries whose results are on file:
>>> endpointvalue("CC(C)(C)NC(=O)N1CCC([C@H]2C[C@H]2CCOc2ccc(-n3cnnn3)cc2)CC1")
14.7
>>> endpointvalue("CC1(OC(=O)N2CCC([C@H]3C[C@H]3CCOc3ccc(-n4cnnn4)cc3)CC2)CC1")
1
>>> endpointvalue("O=C(Cc1ccc(OCC[C@@H]2C[C@@H]2C2CCN(C(=O)OCC3CC3)CC2)cc1F)N1CCC1")
2
>>> endpointvalue("COCc1noc(N2CCC([C@H]3C[C@H]3CCOc3ccc(CC(=O)N4CCC4)c(F)c3)CC2)n1")
5.8
>>> endpointvalue("CC1(OC(=O)N2CCC([C@H]3C[C@H]3CCOc3ccc(-n4cncn4)cn3)CC2)CC1")
0.88
>>> endpointvalue("CC1(OC(=O)N2CCC([C@H]3C[C@H]3CCOc3ccc(CC(=O)N4CCC4)c(F)c3)CC2)CC1")
3.3
>>> endpointvalue("Cc1cc(-n2cnnn2)cnc1OCC[C@@H]1C[C@@H]1C1CCN(C(=O)OC2(C)CC2)CC1")
0.7
>>> endpointvalue("Cc1cc(CC(=O)N2CC(F)C2)cnc1OCC[C@@H]1C[C@@H]1C1CCN(c2nc(C(C)C)no2)CC1")
8

// EC50 value for "CCc1nc(N2CCC([C@H]3C[C@H]3CCOc3ccc(S(C)(=O)=O)cn3)CC2)no1" : 9.2

Just so you know, measured EC50 for "Cc1cc(OCC[C@@H]2C[C@@H]2C2CCN(C(=O)OC3(C)CC3)CC2)ccc1CC(=O)N1CCC1" came out at 5.4

Item: "CC1(OC(=O)N2CCC([C@H]3C[C@H]3CCOc3ccc(CC(=O)N4CCCC4)cc3)CC2)CC1" | EC50: 4.7

Lab note: measured EC50 of "CC(C)c1noc(N2CCC([C@H]3C[C@H]3CCOc3ccc(CC(=O)N4CC(F)C4)c(F)c3)CC2)n1" was 0.4

In plain terms, "CC(C)OC(=O)N1CCC([C@H]2C[C@H]2CCOc2cc(F)c(C(=O)C3CC3)c(F)c2)CC1" has a documented EC50 of 0.8

The recorded EC50 for "CC(C)COC(=O)N1CCC([C@H]2C[C@H]2CCOc2ccc(-n3cnnn3)cc2)CC1" is 1.6
